Origin of the recorded values: patent US9815831B2

Entries and their pIC50 values follow.
test system: Akt; experiment: Inhibition of Akt phosphorylation in MKN-45 cells (Western blot); assay type: cell-based; conditions: Homo sapiens, Table 6, 0-1000 nM
pIC50: −log10 of the molar value.

Worked examples follow.
INSERT INTO assay_data (given_smiles, experimental_target, value_kind, result) VALUES
  ('O=C(NOCCO)c1ccc(-c2ccc3nnn(Cc4ccc5ncccc5c4)c3n2)cc1Cl', 'Akt', 'pIC50', '7.60 to 8.00'),
  ('O=C(NOCCO)c1ccc(-c2ccc3nnn(Cc4cc5cccnc5cc4F)c3n2)cc1Cl', 'Akt', 'pIC50', '≥ 8.00');

Query :: Item NC(=O)c1c(F)cc(-c2ccc3nnn(Cc4ccc5ncsc5c4)c3n2)cc1F has what recorded pIC50?
Result :: 7.30 to 7.60

Query :: Item CC(C)(O)CONC(=O)c1ccc(-c2ccc3nnn(Cc4ccc5ncccc5c4)c3n2)cc1Cl has what recorded pIC50?
Result :: 7.30 to 7.60

----------
Entries and their melting point values follow.

Query :: Item Cc1cc(-c2ccc3nnn(Cc4ccc5c(ccc[n+]5[O-])c4)c3n2)ccc1C(=O)NOCC(C)(C)O has what recorded melting point?
Result :: 160 to 162 °C

Query :: Item O=C(NOCCO)c1ccc(-c2ccc3nnn(Cc4ccc5ncccc5c4)c3n2)cc1F has what recorded melting point?
Result :: 200 to 203 °C

Query :: Item NC(=O)c1ccc(-c2ccc3ncn(Cc4cc5cccnc5cc4F)c3n2)cc1C(F)(F)F has what recorded melting point?
Result :: 239 to 241 °C

Query :: Item O=C(CNC(=O)c1ccccc1)OCCONC(=O)c1ccc(-c2ccc3nnn(Cc4ccc5ncccc5c4)c3n2)cc1Cl has what recorded melting point?
Result :: 110 to 112 °C

----------
Entries and their inhibition at 0.1 µM values follow.
biological target: human recombinant Met kinase (Homo sapiens); construct: purchased Cell Signalling Technology, Beverly, Mass; assay: Colorimetric determination of c-Met kinase activity (HTScan Met Kinase Assay Kit); format: biochemical; conditions: Table 4A; 100 nM (cells without *); read-out: c-Met Enzyme % inhibition @ 100 nM

Worked examples follow.
INSERT INTO assay_data (compound, experimental_target, result) VALUES
  ('O=C(CNC(=O)c1ccccc1)OCCONC(=O)c1ccc(-c2ccc3nnn(Cc4ccc5ncccc5c4)c3n2)cc1Cl [Example 16]', 'human recombinant Met kinase (Homo sapiens)', '75 to 100%'),
  ('O=C(NOCCO)c1ccc(-c2ccc3nnn(Cc4cc5cccnc5cc4F)c3n2)cc1Cl [Example 7]', 'human recombinant Met kinase (Homo sapiens)', '75 to 100%'),
  ('Cc1ccc2cc(Cn3nnc4ccc(-c5cc(F)c(C(=O)NOCCO)c(F)c5)nc43)ccc2n1 [Example 21]', 'human recombinant Met kinase (Homo sapiens)', '75 to 100%'),
  ('Cc1cc(-c2ccc3nnn(Cc4ccc5ncccc5c4)c3n2)ccc1C(=O)NOCCOC(=O)C(C)C [Example 44]', 'human recombinant Met kinase (Homo sapiens)', '75 to 100%'),
  ('O=C(NOCCO)c1ccc(-c2ccc3nnn(Cc4cc5cccnc5cc4F)c3n2)cc1F [Example 27]', 'human recombinant Met kinase (Homo sapiens)', '75 to 100%'),
  ('Cc1cc(-c2ccc3nnn(Cc4ccc5ncccc5c4)c3n2)ccc1C(=O)NOCC(C)(C)O [Example 33]', 'human recombinant Met kinase (Homo sapiens)', '75 to 100%'),
  ('CC(C)(O)CONC(=O)c1c(F)cc(-c2ccc3nnn(Cc4ccc5ncccc5c4)c3n2)cc1F [Example 34]', 'human recombinant Met kinase (Homo sapiens)', '75 to 100%'),
  ('O=C(NOCCO)c1ccc(-c2ccc3nnn(Cc4ccc5ncccc5c4)c3n2)cc1C(F)(F)F [Example 23]', 'human recombinant Met kinase (Homo sapiens)', '75 to 100%');

Query :: Item Cc1cc(-c2ccc3nnn(Cc4ccc5ncccc5c4)c3n2)ccc1C(=O)NOCCOC(=O)c1ccco1 [Example 47] has what recorded inhibition at 0.1 µM?
Result :: 75 to 100%

Query :: Item O=C(NOCCO)c1c(F)cc(-c2ccc3nnn(Cc4cc5cccnc5cc4F)c3n2)cc1F [Example 9] has what recorded inhibition at 0.1 µM?
Result :: 75 to 100%

Query :: Item O=C(NOCCO)c1ccc(-c2ccc3nnn(Cc4ccc5ncsc5c4)c3n2)cc1Cl [Example 18] has what recorded inhibition at 0.1 µM?
Result :: 50 to 75%

----------
Entries and their inhibition at 0.1 µM values follow.
molecular target: human recombinant Met kinase (Homo sapiens); construct: purchased Cell Signalling Technology, Beverly, Mass; experiment: Colorimetric determination of c-Met kinase activity (HTScan Met Kinase Assay Kit); type: biochemical; details: Table 4C; 100 nM (cells without *); read-out: c-Met Enzyme % inhibition @ 100 nM

INSERT INTO results (given_smiles, experimental_target, value_kind, result) VALUES
  ('NC(=O)c1ccc(-c2ccc3ncn(Cc4c(F)cc5ncccc5c4F)c3n2)cc1C(F)(F)F', 'human recombinant Met kinase (Homo sapiens)', 'inhibition at 0.1 µM', '75 to 100%');

Query :: Item NC(=O)c1c(F)cc(-c2ccc3nnn(Cc4ccc5c(ccc[n+]5[O-])c4)c3n2)cc1F has what recorded inhibition at 0.1 µM?
Result :: < 25%

Query :: Item NC(=O)c1ccc(-c2ccc3ncn(Cc4ccc5ncccc5c4)c3n2)cc1C(F)(F)F has what recorded inhibition at 0.1 µM?
Result :: 75 to 100%

Query :: Item NC(=O)c1ccc(-c2ccc3ncn(Cc4cc5cccnc5cc4F)c3n2)cc1C(F)(F)F has what recorded inhibition at 0.1 µM?
Result :: 25 to 50%

----------
VALUE KIND: melting point

Worked examples follow.
INSERT INTO results (given_smiles, value_kind, result) VALUES
  ('CC(C)(CO)ONC(=O)c1ccc(-c2ccc3nnn(Cc4ccc5ncccc5c4)c3n2)cc1Cl', 'melting point', '148 to 150 °C'),
  ('C[C@H](O)CNC(=O)c1ccc(-c2ccc3ncn(Cc4ccc5ncccc5c4)c3n2)cc1F', 'melting point', '166 to 169 °C'),
  ('CNC(=O)c1ccc(-c2ccc3ncn(Cc4ccc5ncccc5c4)c3n2)cn1', 'melting point', '219 to 221 °C'),
  ('O=C(NOCCO)c1c(F)cc(-c2ccc3nnn(Cc4ccc5ncsc5c4)c3n2)cc1F', 'melting point', '202 to 205 °C'),
  ('NC(=O)c1ccc(-c2ccc3ncn(Cc4ccc5ncccc5c4)c3n2)cc1C(F)(F)F', 'melting point', '243 to 245 °C');

Query :: Item CC(C)(C)C(=O)OCCONC(=O)c1ccc(-c2ccc3nnn(Cc4ccc5ncccc5c4)c3n2)cc1Cl has what recorded melting point?
Result :: 130 to 133 °C

Query :: Item C[C@H](N)C(=O)OCCONC(=O)c1ccc(-c2ccc3nnn(Cc4ccc5ncccc5c4)c3n2)cc1Cl has what recorded melting point?
Result :: 175 to 177 °C

Query :: Item Cc1cc(-c2ccc3ncn(Cc4c(F)cc5ncccc5c4F)c3n2)ccc1C(N)=O has what recorded melting point?
Result :: 158 to 160 °C

----------
target: human recombinant Met kinase (Homo sapiens, UniProt P08581); construct: purchased Cell Signalling Technology, Beverly, Mass; experiment: Colorimetric determination of c-Met kinase activity (HTScan Met Kinase Assay Kit); type: biochemical; conditions: Table 4C; read-out: c-Met Enzyme IC50
Sequence (P08581 25-1390): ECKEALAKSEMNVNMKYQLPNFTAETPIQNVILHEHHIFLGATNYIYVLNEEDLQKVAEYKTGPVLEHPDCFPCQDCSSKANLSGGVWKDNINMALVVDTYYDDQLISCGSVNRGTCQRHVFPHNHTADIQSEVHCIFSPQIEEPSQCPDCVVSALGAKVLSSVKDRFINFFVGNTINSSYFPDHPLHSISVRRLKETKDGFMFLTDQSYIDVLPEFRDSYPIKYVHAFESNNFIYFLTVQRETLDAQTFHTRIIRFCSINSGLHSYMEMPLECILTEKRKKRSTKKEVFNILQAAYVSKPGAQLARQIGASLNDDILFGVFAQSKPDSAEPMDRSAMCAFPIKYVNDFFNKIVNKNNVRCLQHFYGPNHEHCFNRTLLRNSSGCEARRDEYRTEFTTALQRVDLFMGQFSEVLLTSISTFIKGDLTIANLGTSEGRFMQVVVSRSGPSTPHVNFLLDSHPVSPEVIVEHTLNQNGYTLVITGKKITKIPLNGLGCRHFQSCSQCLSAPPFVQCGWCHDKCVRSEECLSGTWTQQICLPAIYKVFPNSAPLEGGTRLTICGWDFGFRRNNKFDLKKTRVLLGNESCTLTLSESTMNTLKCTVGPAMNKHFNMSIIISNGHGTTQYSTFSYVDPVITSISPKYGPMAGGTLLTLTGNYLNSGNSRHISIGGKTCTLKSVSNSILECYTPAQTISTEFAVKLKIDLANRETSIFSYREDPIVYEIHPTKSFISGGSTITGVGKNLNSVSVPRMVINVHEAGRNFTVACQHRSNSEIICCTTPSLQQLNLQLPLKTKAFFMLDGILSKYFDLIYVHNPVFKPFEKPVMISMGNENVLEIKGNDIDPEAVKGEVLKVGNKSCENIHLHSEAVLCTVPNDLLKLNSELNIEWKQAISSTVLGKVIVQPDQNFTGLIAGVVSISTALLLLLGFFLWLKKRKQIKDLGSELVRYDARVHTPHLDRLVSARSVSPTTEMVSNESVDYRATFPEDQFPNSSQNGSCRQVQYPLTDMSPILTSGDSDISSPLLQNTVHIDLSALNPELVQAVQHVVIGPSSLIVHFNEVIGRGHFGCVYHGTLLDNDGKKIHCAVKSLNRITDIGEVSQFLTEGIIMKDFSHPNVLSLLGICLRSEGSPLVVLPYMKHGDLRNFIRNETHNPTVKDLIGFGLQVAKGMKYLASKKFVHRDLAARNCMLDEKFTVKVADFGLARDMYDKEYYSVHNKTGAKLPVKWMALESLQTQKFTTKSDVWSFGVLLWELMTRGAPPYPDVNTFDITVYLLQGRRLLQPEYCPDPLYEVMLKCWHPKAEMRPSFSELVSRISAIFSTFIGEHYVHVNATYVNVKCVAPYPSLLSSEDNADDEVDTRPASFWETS
pIC50: −log10 of the molar value.
VALUE KIND: pIC50

Worked examples follow.
INSERT INTO measurements (compound, result) VALUES
  ('NC(=O)c1ccc(-c2ccc3ncn(Cc4ccc5ncccc5c4)c3n2)cc1Cl', '7.00 to 7.30'),
  ('NC(=O)c1c(F)cc(-c2ccc3nnn(Cc4cc5cccnc5cc4F)c3n2)cc1F', '> 7.60'),
  ('NC(=O)c1c(F)cc(-c2ccc3nnn(Cc4ccc5ncccc5c4)c3n2)cc1F [Example 1003, 2,2,2-trifluoroacetate]', '> 7.60'),
  ('NC(=O)c1ccc(-c2ccc3ncn(Cc4cc5cccnc5cc4F)c3n2)cc1Cl', '> 7.60'),
  ('NC(=O)c1c(F)cc(-c2ccc3nnn(Cc4ccc5ncsc5c4)c3n2)cc1F', '7.30 to 7.60');

Query :: Item NC(=O)c1ccc(-c2ccc3ncn(Cc4c(F)cc5ncccc5c4F)c3n2)cc1Cl has what recorded pIC50?
Result :: > 7.60

Query :: Item NC(=O)c1ccc(-c2ccc3ncn(Cc4ccc5ncccc5c4)c3n2)cc1C(F)(F)F has what recorded pIC50?
Result :: > 7.60

Query :: Item Cc1cc(-c2ccc3ncn(Cc4cc5cccnc5cc4F)c3n2)ccc1C(N)=O has what recorded pIC50?
Result :: > 7.60

----------
Biological target: c-Met kinase (Homo sapiens)
Assay: Inhibition of c-Met kinase phosphorylation in MKN-45 cells (cell based ELISA)
Parameters: endogenous in cells; host or cells: MKN-45
Details: Table 4D, 1 h incubation
Experimental: MKN45 cells are a prototype of “c-Met addicted” cells having constitutively activated c-Met kinase similar to that observed in sub-sects of gastric or hepatocellular cancer patients with dysregulated c-Met kinase activity. […] Optical density was measured on a microplate reader (BMG Labtech., Germany) at 450 nM. […]
pIC50: −log10 of the molar value.
VALUE KIND: pIC50

Worked examples follow.
INSERT INTO results (given_smiles, result) VALUES
  ('C[C@H](O)CONC(=O)c1ccc(-c2ccc3nnn(Cc4ccc5ncccc5c4)c3n2)cc1Cl', '≥ 8.00'),
  ('Cc1cc(-c2ccc3nnn(Cc4ccc5ncccc5c4)c3n2)ccc1C(=O)NOCCO', '7.30 to 7.60'),
  ('CC(C)(O)CONC(=O)c1ccc(-c2ccc3nnn(Cc4ccc5ncccc5c4)c3n2)cc1Cl', '7.30 to 7.60'),
  ('Cc1cc(-c2ccc3nnn(Cc4ccc5ncccc5c4)c3n2)ccc1C(=O)NOCC(C)(C)O', '7.60 to 8.00'),
  ('O=C(NOCCO)c1c(F)cc(-c2ccc3nnn(Cc4cc5cccnc5cc4F)c3n2)cc1F', '7.30 to 7.60'),
  ('O=C(NOCCO)c1c(F)cc(-c2ccc3nnn(Cc4ccc5ncccc5c4)c3n2)cc1F', '6.30 to 7.30'),
  ('C[C@@H](O)CONC(=O)c1ccc(-c2ccc3nnn(Cc4ccc5ncccc5c4)c3n2)cc1Cl', '≥ 8.00'),
  ('NC(=O)c1c(F)cc(-c2ccc3nnn(Cc4ccc5ncsc5c4)c3n2)cc1F', '7.30 to 7.60'),
  ('O=C(NOCCO)c1ccc(-c2ccc3nnn(Cc4ccc5ncccc5c4)c3n2)cc1Cl', '7.30 to 7.60');

Now look at this entry.
Query :: Item O=C(NOCCO)c1ccc(-c2ccc3nnn(Cc4cc5cccnc5cc4F)c3n2)cc1Cl has what recorded pIC50?
Result :: ≥ 8.00
